Biological target: gp41 of HIV-1 strain HXB2D with mutation V38A (HIV-1 strain HXB2D, UniProt P04578)
Assay: cell-based or functional assay
Starred links: 1 amine or outer side, 2 acyl side, 3 side chain; linkers in the order of their positions; H or OH if unused. Positions of bridges follow the written chain, without caps; N, C: chain ends. Non-standard residues stand in square brackets, D forms with d. *: point of attachment. Suc = O=C(CCC(=O)[*:2])[*:1]; hCys = N[C@@H](CCS)C(=O)O; B1 = not defined here; Butyryl = CCCC(=O)*
measure: fold change in EC50, HIV-HXB2D V38A mutant (fold)
Dear colleague, please return just the value in fold, with no unit written.

-- ask # fold change in EC50, HIV-HXB2D V38A mutant lookup, item Suc-[hCys]YLA[hCys]IEALIRAAREQQEKNEALLR-NH2 (linker 1-5 via B1; reading uncertain) [peptide 28]
-- reply 4

-- ask Lookup Butyryl-ECYLACIEELIRKAQEQQEKNEAALR-NH2 (linker 2-6 via B1; reading uncertain) [peptide 40]
-- reply 3
